The values you see were collected from patent US20240342318A1.

Readings of Kd for the listed compounds
system name: EGFR (WT) (Homo sapiens, UniProt P00533)
Construct: The EGFR constructs span amino acids R669 to V1011 of the EGFR protein; T7 phage display fusion (kinase-tagged T7 phage) or DNA tag for qPCR; made in house; host or cells: E. coli (BL21-derived) infected with T7 phage for most assays; remaining kinases in HEK-293
Sequence (P00533 669-1011): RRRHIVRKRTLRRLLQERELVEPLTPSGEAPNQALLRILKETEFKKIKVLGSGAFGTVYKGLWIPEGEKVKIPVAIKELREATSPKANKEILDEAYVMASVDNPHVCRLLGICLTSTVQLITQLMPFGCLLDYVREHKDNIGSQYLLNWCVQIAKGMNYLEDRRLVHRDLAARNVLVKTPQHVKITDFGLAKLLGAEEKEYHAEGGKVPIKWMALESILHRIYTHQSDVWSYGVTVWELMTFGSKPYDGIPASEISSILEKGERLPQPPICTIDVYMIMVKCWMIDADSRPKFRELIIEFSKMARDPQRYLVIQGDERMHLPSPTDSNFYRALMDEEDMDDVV
test summary: In vitro kinase binding assay (phage/DNA-tagged kinase, affinity beads, qPCR), wild-type EGFR
test conditions: wild-type EGFR construct R669 to V1011; 11-point 3-fold dilution series; 1 hour at room temperature; read-out: EGFR (WT) Kd

Please review the entries below; each comes with its answer.
smiles representation | system name | Kd
C=CC(=O)N[C@@H]1CN(c2nc(Nc3cn(CCCCCNC(=O)CN4CCN(CC(=O)O)CCN(CC(=O)O)CCN(CC(=O)O)CC4)nc3CC)c3ncn(C(C)(C)C)c3n2)C[C@H]1F | EGFR (WT) (Homo sapiens, UniProt P00533) | 1000 to 2500 nM
C=CC(=O)N[C@@H]1CN(c2nc(Nc3cn(CCCCCNC(=O)CN4C[C@H](CC)N(CC(=O)O)C[C@H](CC)N(CC(=O)O)C[C@H](CC)N(CC(=O)O)C[C@@H]4CC)nc3CC)c3ncn(C(C)(C)C)c3n2)C[C@H]1F | EGFR (WT) (Homo sapiens, UniProt P00533) | 1000 to 2500 nM

Lookup: Consider the compound C=CC(=O)N[C@@H]1CN(c2nc(Nc3cn(CCCCCCCNC(=O)CN4CCN(CC(=O)O)CCN(CC(=O)O)CCN(CC(=O)O)CC4)nc3OC)c3ncn(C)c3n2)C[C@H]1F and give its measured Kd.
Found: 2 to 100 nM
